Biological target: TNF-α (Homo sapiens)
Assay: TNF-α Induced HEK Blue Cellular Assay
Format: cell-based
Conditions: HEK Blue TNFα reporter cells, TNF-α 100 pg/ml, 24 hrs at 37° C., secreted alkaline phosphatase (QUANTI-Blue, 620 nm)
attribute_measured: IC50

Any idea what IC50 was measured for "Cc1nc2cc(F)c(-c3ccc(P(C)(C)=O)nc3)nc2c(N[C@H](C)c2cccc(C(F)F)c2)c1Cl" ? ≤ 100 nM

Any idea what IC50 was measured for "Cc1nc2cc(F)c(-c3ccc(P(C)(C)=O)nc3)nc2c(N[C@H](C)c2cccnc2)c1Cl" ? ≤ 100 nM

Any idea what IC50 was measured for "Cc1nc2cc(F)c(-c3ccc(CP(C)(C)=O)nc3)nc2c(N[C@H](C)c2cc(C#N)ccc2F)c1Cl" ? ≤ 1000 nM

Any idea what IC50 was measured for "Cc1nc2ccc(-c3ccc(P(C)(C)=O)nc3)cc2c(N[C@H](C)c2cc(C#N)ccc2F)c1Cl" ? ≤ 100 nM

* * *

Attribute: IC50
Target: TNF-α (Homo sapiens, UniProt P01375)
Sequence (P01375 77-233 limits assumed): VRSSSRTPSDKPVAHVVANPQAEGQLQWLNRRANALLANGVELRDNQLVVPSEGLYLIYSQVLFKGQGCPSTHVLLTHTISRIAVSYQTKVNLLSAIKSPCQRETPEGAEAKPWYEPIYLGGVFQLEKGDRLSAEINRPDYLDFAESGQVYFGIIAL
Test: TNF-α Induced HEK Blue Cellular Assay
Format: cell-based
Conditions: HEK Blue TNFα reporter cells, TNF-α 100 pg/ml, 24 hrs at 37° C., secreted alkaline phosphatase (QUANTI-Blue, 620 nm)

Completed entries (count: 2):
compound: Cc1nc2cc(F)c(-c3ccc(P(C)(C)=O)nc3)nc2c(N[C@H](c2ccccc2F)C(F)F)c1Cl [Example 26]
assayed_target: TNF-α (Homo sapiens, UniProt P01375)
IC50: 1 to 10 µM
--
compound: CC[C@@H](Nc1c(Cl)c(C)nc2cc(F)c(-c3cnc(P(C)(C)=O)nc3)nc12)c1ccccc1F [Example 16]
assayed_target: TNF-α (Homo sapiens, UniProt P01375)
IC50: ≤ 0.1 µM

Any idea what IC50 was measured for CC[C@H](Nc1c(Cl)c(C)nc2cc(F)c(-c3ccc(P(C)(C)=O)nc3)nc12)c1ccccc1F [Example 23] ? ≤ 0.1 µM

Any idea what IC50 was measured for Cc1nc2cc(F)c(-c3ccc(P(C)(C)=O)cc3)nc2c(N[C@H](C)c2cc(C#N)ccc2F)c1Cl [Example 3] ? ≤ 0.1 µM

Any idea what IC50 was measured for C[C@@H](Nc1c(Cl)cnc2cc(F)c(-c3ccc(P(C)(C)=O)nc3)nc12)c1cc(C#N)ccc1F [Example 15] ? ≤ 0.1 µM

Any idea what IC50 was measured for CC[C@H](Nc1c(Cl)c(C)nc2cc(F)c(-c3ccc(P(C)(C)=O)nc3)nc12)c1cc(F)cc(F)c1 [Example 148] ? 1 to 10 µM

Any idea what IC50 was measured for Cc1nc2cc(F)c(-c3ccc(P(C)(C)=O)nc3)nc2c(N[C@H](C)c2nc(C#N)ccc2F)c1Cl [Example 123] ? ≤ 1 µM

* * *

Molecular target: TNF-α (Homo sapiens, UniProt P01375)
Experiment: TNF-α Induced HEK Blue Cellular Assay
Settings: HEK Blue TNFα reporter cells, TNF-α 100 pg/ml, 24 hrs at 37° C., secreted alkaline phosphatase (QUANTI-Blue, 620 nm)
attribute_measured: IC50

compound: Cc1nc2cc(F)c(-c3ccc(P(C)(C)=O)nc3)nc2c(N[C@H](C)c2ccccc2)c1Cl [Example 90]
assayed_target: TNF-α (Homo sapiens, UniProt P01375)
attribute_measured: IC50
result_value: ≤ 100 nM
--
compound: CCC(Nc1c(Cl)c(C)nc2cc(F)c(-c3ccc(P(C)(C)=O)nc3)nc12)c1cccnc1 (stereo not shown) [Example 82]
assayed_target: TNF-α (Homo sapiens, UniProt P01375)
attribute_measured: IC50
result_value: ≤ 100 nM
--
compound: Cc1nc2cc(F)c(-c3ccc(P(C)(C)=O)nc3)cc2c(N[C@H](C)c2cccc(F)c2F)c1Cl [Example 67]
assayed_target: TNF-α (Homo sapiens, UniProt P01375)
attribute_measured: IC50
result_value: ≤ 100 nM

Let us examine a further case.
Any idea what IC50 was measured for CC[C@H](Nc1c(Cl)c(C)nc2cc(F)c(-c3cnc(P(C)(C)=O)nc3)cc12)c1cccc(F)c1F [Example 115] ? ≤ 1000 nM

* * *

Attribute: IC50
Molecular target: TNF-α (Homo sapiens, UniProt P01375)
Assay: TNF-α Induced HEK Blue Cellular Assay
Details: HEK Blue TNFα reporter cells, TNF-α 100 pg/ml, 24 hrs at 37° C., secreted alkaline phosphatase (QUANTI-Blue, 620 nm)

Completed entries (count: 6):
molecule: CCC(Nc1c(Cl)c(C)nc2cc(F)c(-c3ccc(P(C)(C)=O)nc3)nc12)c1cnn(C)c1 (stereo not shown)
result_value: ≤ 1000 nM

molecule: CC[C@@H](Nc1c(F)c(C)nc2cc(F)c(-c3ccc(P(C)(C)=O)nc3)nc12)c1ccccc1F
result_value: ≤ 1000 nM

molecule: CC[C@@H](Nc1c(Cl)c(C)nc2cc(F)c(-c3ccc(P(C)(C)=O)nc3)cc12)c1ncccc1F
result_value: ≤ 1000 nM

molecule: Cc1nc2cc(F)c(-c3ccc(P(C)(C)=O)nc3)nc2c(N[C@H](C)c2cccc(C(F)(F)F)c2)c1Cl
result_value: ≤ 100 nM

molecule: Cc1nc2cc(F)c(-c3ccc(P(C)(C)=O)nc3)nc2c(N[C@H](C)c2cccc(F)c2)c1Cl
result_value: ≤ 100 nM

molecule: Cc1cc(P(C)(C)=O)ncc1-c1nc2c(N[C@H](C)c3cc(C#N)ccc3F)c(Cl)c(C)nc2cc1F
result_value: ≤ 1000 nM

Let us examine a further case.
Any idea what IC50 was measured for "COP(=O)(O)c1ccc(-c2nc3c(N[C@H](C)c4cc(C#N)ccc4F)c(Cl)c(C)nc3cc2F)cn1" ? ≤ 1000 nM

* * *

Attribute: pIC50
Molecular target: TNF-α (Homo sapiens)
Experiment: TNF-α Induced HEK Blue Cellular Assay
Conditions: HEK Blue TNFα reporter cells, TNF-α 100 pg/ml, 24 hrs at 37° C., secreted alkaline phosphatase (QUANTI-Blue, 620 nm)
pIC50: −log10 of the molar value.

compound: Cc1nc2cc(F)c(-c3ccc(P(=O)(O)O)nc3)nc2c(N[C@H](C)c2cc(C#N)ccc2F)c1Cl
assayed_target: TNF-α (Homo sapiens)
pIC50: 4.52 to 5.00
//
compound: Cc1nc2cc(F)c(-c3ccc(P(C)(C)=O)nc3)nc2c(N[C@H](CO)c2cc(C#N)ccc2F)c1Cl (single isomer, unassigned)
assayed_target: TNF-α (Homo sapiens)
pIC50: 4.52 to 5.00
//
compound: CC[C@@H](Nc1c(Cl)c(C)nc2cc(F)c(-c3cnc(P(C)(C)=O)nc3)nc12)c1cc(C#N)ccc1F
assayed_target: TNF-α (Homo sapiens)
pIC50: ≥ 7.00
//
compound: Cc1nc2cc(F)c(-c3ccc(P(C)(C)=O)nc3)nc2c(N[C@H](C)c2cc(C(N)=O)ccc2F)c1Cl
assayed_target: TNF-α (Homo sapiens)
pIC50: ≥ 7.00
//
compound: Cc1nc2cc(F)c(-c3ccc(P4(=O)CCCC4)nc3)nc2c(N[C@H](C)c2cc(C#N)ccc2F)c1Cl
assayed_target: TNF-α (Homo sapiens)
pIC50: ≥ 7.00

# value lookup — system TNF-α (Homo sapiens), readout pIC50, item "Cc1nc2cc(F)c(-c3ccc(OCP(C)(C)=O)nc3)nc2c(N[C@H](C)c2cc(C#N)ccc2F)c1Cl" ≥ 7.00

# value lookup — system TNF-α (Homo sapiens), readout pIC50, item "Cc1nc2cc(F)c(-c3cnc(P(C)(C)=O)nc3)cc2c(N[C@H](C)c2cccc(F)c2F)c1Cl" ≥ 6.00

* * *

Target: TNF-α (Homo sapiens, UniProt P01375)
Experiment: TNF-α Induced HEK Blue Cellular Assay
Conditions: HEK Blue TNFα reporter cells, TNF-α 100 pg/ml, 24 hrs at 37° C., secreted alkaline phosphatase (QUANTI-Blue, 620 nm)
Attribute: IC50

Any idea what IC50 was measured for Cc1nc2cc(F)c(N3CCC(P(C)(C)=O)CC3)nc2c(N[C@H](C)c2cc(C#N)ccc2F)c1Cl [Example 31] ? ≤ 0.1 µM

Any idea what IC50 was measured for Cc1nc2cc(F)c(-c3ccc(P(C)(C)=O)nc3)nc2c(N[C@@H](C)c2c(F)cccc2F)c1Cl [Example 54] ? ≤ 1 µM

Any idea what IC50 was measured for Cc1nc2cc(F)c(-c3ccc(P(C)(C)=O)nc3)nc2c(N[C@H](C)c2ccc(F)cc2F)c1Cl [Example 88] ? 10 to 30 µM

Any idea what IC50 was measured for Cc1nc2cc(F)c(-c3ccc(P(C)(C)=O)nc3)nc2c(N[C@H](C)c2cccc(F)c2F)c1C#N [Example 144] ? 10 to 30 µM

* * *

Molecular target: TNF-α (Homo sapiens, UniProt P01375)
Experiment: TNF-α Induced HEK Blue Cellular Assay
Conditions: HEK Blue TNFα reporter cells, TNF-α 100 pg/ml, 24 hrs at 37° C., secreted alkaline phosphatase (QUANTI-Blue, 620 nm)
Procedure: TNF-α Induced HEK Bluet Cellular Assay Test articles were diluted in DMSO and serially diluted into 384 well assay plate (Corning 3765), at final concentrations ranging from 30 mM to 0.5 nM. […]
Attribute: IC50

Completed entries (count: 5):
molecule: CC[C@H](Nc1c(Cl)c(C)nc2cc(F)c(-c3cnc(P(C)(C)=O)nc3)nc12)c1cc(C#N)ccc1F [Example 30]
result_value: ≤ 100 nM
--
molecule: Cc1nc2cc(F)c(-c3ccc(P(C)(C)=O)nc3)nc2c(NC(c2cccc(F)c2F)C(C)(F)F)c1Cl (stereo not shown) [Example 142]
result_value: 1000 to 10000 nM
--
molecule: CC[C@H](Nc1c(Cl)c(C)nc2cc(F)c(-c3cnc(P(C)(C)=O)nc3)nc12)c1cccc(F)c1F [Example 127]
result_value: ≤ 1000 nM
--
molecule: Cc1nc2cc(F)c(-c3ccc(P(C)(C)=O)nc3)nc2c(N[C@@H](C)c2cccc(F)c2F)c1Cl [Example 45]
result_value: ≤ 100 nM
--
molecule: Cc1nc2ccc(-c3cnc(P(C)(C)=O)nc3)nc2c(N[C@H](C)c2cc(C#N)ccc2F)c1Cl [Example 41]
result_value: ≤ 1000 nM

Any idea what IC50 was measured for CC[C@H](Nc1c(Cl)c(C)nc2cc(F)c(-c3ccc(P(C)(C)=O)nc3)nc12)c1cc(C#N)ccc1F [Example 44] ? ≤ 100 nM

Any idea what IC50 was measured for CCP(=O)(CC)c1ccc(-c2nc3c(N[C@H](C)c4cc(C#N)ccc4F)c(Cl)c(C)nc3cc2F)cn1 [Example 42] ? ≤ 100 nM
